# reported growth inhibition; entries follow
Test: NCI Yeast Anticancer Drug Screen. Data for the cln2 rad14 strain (AID 165);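 also: 0% = growth equal to vehicle treated cultures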
Conditions: S. cerevisiae cln2 rad14 strain, at 50.0 µM, active compounds read high
Compounds without any hit were thinned out: in the full panel of roughly 79,000, 15% have a hit. Calls of active or inactive are those of the source. Rule as the data show it: active = growth inhibition above about 70%; inactive = the rest.

- Compound: "CCCCNc1ccc(S(=O)(=O)c2ccc(NCCCC)c([N+](=O)[O-])c2)cc1[N+](=O)[O-]"
  growth inhibition: "-1.4% (inactive)"
- Compound: "CNC1(C(=O)O)CCCCC1"
  growth inhibition: "4.6% (inactive)"

Moving on to the next compound.
Query block: # lookup: growth inhibition of OCC1OC(n2cc(I)c3c(Cl)ncnc32)C(O)C1O (stereo not drawn)
Result block: -36.8% (inactive)

====

Recorded growth inhibition for the following molecules
Assay: NCI Yeast Anticancer Drug Screen. Data for the sgs1 mgt1 strain (AID 161);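 also: 0% = growth of cultures given vehicle only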
Details: S. cerevisiae sgs1 mgt1 strain, at 50.0 µM, active compounds read high
This is part of a sample that, as a whole, favours compounds with a hit. Of some 79,000 tested, about 15% had one in any assay. Active and inactive are the calls of the source. Rule as the data show it: active = growth inhibition above about 70%; inactive = the rest.

Query block: So what does the record say about growth inhibition for COc1ccc(C(C)c2cc3c(cc2OCC(=O)O)OCO3)cc1OC (stereo not drawn) ?
Result block: -6.85% (inactive)

Query block: Please do the same for `O=c1[nH]cc(C(F)(C(F)(F)F)C(F)(F)F)c(=O)[nH]1` as well.
Result block: -24.6% (inactive)

Query block: Note, next up: `O=S(=O)(O)c1cc(O)c2ccc3c(S(=O)(=O)O)cc(S(=O)(=O)O)c4ccc1c2c34`
Result block: -2.85% (inactive)

====

Assay: NCI Yeast Anticancer Drug Screen. Data for the mec2-1 strain (AID 157)
Conditions: S. cerevisiae mec2-1 strain, at 50.0 µM, active compounds read high
Experimental: Growth inhibition of yeast strains with defined genetic alterations is measured as a screen for potential anti-cancer activity. Selected strains with alterations in DNA damage repair or cell cycle control were exposed to compounds and growth inhibition was measured relative to vehicle treated controls. The strain used in this assay is mec2-1
This is part of a sample that, as a whole, favours compounds with a hit. Of some 79,000 tested, about 15% had one in any assay.
The reader will find reported growth inhibition values listed item by item below.
Kindly provide the numeric value in % only, without the unit symbol.

# annotated cases, reported growth inhibition shown
- Compound: "COc1ccc(N=C2c3cc([N+](=O)[O-])ccc3-c3c2cccc3[N+](=O)[O-])cc1"
  growth inhibition, %: -8.25
- Compound: "CN=C(NC)c1ccc(Cl)c(Cl)c1"
  growth inhibition, %: -5.4
- Compound: "SCCc1ccccc1"
  growth inhibition, %: -35.1
- Compound: "CCOC(=O)c1nc2ccccc2nc1NCc1ccc(OC)c(OC)c1"
  growth inhibition, %: 13.1
- Compound: "C/C(=N\\N=C(/C)c1ccc(N)cc1)c1ccc(N)cc1"
  growth inhibition, %: 5

// below: growth inhibition requested for another compound
Query block: Give its growth inhibition value. Item: `CN(C1CCCCC1)S(=O)(=O)c1ccc(N)cc1`
Result block: -3.35

====

Test: NCI Yeast Anticancer Drug Screen. Data for the bub3 strain (AID 167)
Conditions: S. cerevisiae bub3 mutant strain, at 50.0 µM, active compounds read high
The panel holds about 79,000 compounds, 15% with a hit somewhere; the sample as a whole holds those more often.
Measurement Name: growth inhibition (%)
Please give a number only; it is taken to be in %.

- Compound: "CSc1nc(-c2ccccc2)c2c(n1)-c1ccccc1CC2"
  growth inhibition / %: 17.9
- Compound: "C=C1C(=O)OC2/C=C(\\C)C(O)CC(O)C(C)(O)CC(OC(=O)/C(C)=C/C)C12 (stereo not drawn)"
  growth inhibition / %: 6.5
- Compound: "c1ccc2cc(B(c3cccc4ccccc34)c3cccc4ccccc34)ccc2c1"
  growth inhibition / %: -2.25
- Compound: "CCOC(=O)c1cc(CC)[nH]c(=O)c1C#N"
  growth inhibition / %: 5.4
- Compound: "NC(N)=N/N=C(/c1nc2ccc([N+](=O)[O-])cc2[nH]c1=O)C(O)c1ccco1 (stereo not drawn)"
  growth inhibition / %: -15.3
- Compound: "CC1(CO)CSC(Nc2ccc(Cl)c(Cl)c2)=N1 (stereo not drawn)"
  growth inhibition / %: 20.1

Query block: Form field: reported growth inhibition of `CCCCCC(=O)OCCCCCO`
Result block: 2.6

Query block: What do we get for COc1ccccc1C(CC(=O)c1ccccc1)Sc1ccccc1N (stereo not drawn) ?
Result block: 26.4

Query block: # iterate: `Cc1cc(Br)cc(C)c1NC(=O)C(=O)Nn1c(=S)[nH]c2ccccc2c1=O`
Result block: -8.2

Query block: Another compound to look at: O=C1CSC(c2ccc(C(F)(F)F)cc2)N1c1nncs1 (stereo not drawn)
Result block: 12.6
